The following compounds each carry a recorded pIC50 for Acetylcholinesterase (Homo sapiens, UniProt P22303).
Remember the convention: pIC50 equals -log10 of concentration in molar.

Recorded results for 6 compounds are shown here.
Indicate its recorded pIC50; the compound in question is O=C(N/N=C/c1ccc([N+](=O)[O-])cc1)N1CCN(c2ccccn2)CC1
5.94

Indicate its recorded pIC50; the compound in question is Oc1ccc(-c2nnc(N3CCN(c4ccccn4)CC3)o2)c(O)c1
5.87

Indicate its recorded pIC50; the compound in question is O=C(N/N=C/c1ccc(C(F)(F)F)cc1)N1CCN(c2ccccn2)CC1
5.88

Indicate its recorded pIC50; the compound in question is Cc1ccc(-c2nnc(N3CCN(c4ccccn4)CC3)o2)cc1
5.99

Indicate its recorded pIC50; the compound in question is O=C(N/N=C/c1ccc(F)cc1F)N1CCN(c2ccccn2)CC1
6.17

Indicate its recorded pIC50; the compound in question is Oc1ccccc1-c1nnc(N2CCN(c3ccccn3)CC2)o1
5.91

---
Indicate its recorded pIC50; the compound in question is COc1cccc(-c2nnc(N3CCN(c4ccccn4)CC3)o2)c1OC
5.92

Indicate its recorded pIC50; the compound in question is Oc1ccc(-c2nnc(N3CCN(c4ccccn4)CC3)o2)cc1
5.93
